FYI, the data here is from patent US20200239420A1.

assay: Rat PK; assay type: in vivo; conditions: rat, in vivo; IV, 1 mg/kg, male Han Wistar rats, n = 3
observation_type: MRT inf (h)

>>> readout_value("O=C(Nc1ccc(Cl)cc1)[C@@H]1C[C@]12CC[C@H](c1ccnc3ccccc31)CC2 (relative stereo)")
7.35

====

assay: Rat PK; format: in vivo; conditions: rat, in vivo; IV, 1 mg/kg, male Han Wistar rats, n = 3
observation_type: AUC(0-inf) (ng·h/mL)

>>> readout_value("O=C(Nc1ccc(Cl)cc1)[C@@H]1C[C@]12CC[C@H](c1ccnc3ccccc31)CC2 (relative stereo)")
4660

====

assay: Rat PK; assay type: in vivo; details: rat, in vivo; IV, 1 mg/kg, male Han Wistar rats, n = 3; read-out: Vss
observation_type: Vd (L/kg)

>>> readout_value("O=C(Nc1ccc(Cl)cc1)[C@@H]1C[C@]12CC[C@H](c1ccnc3ccccc31)CC2 (relative stereo)")
1.58
